molecular target: adenosine A2B receptor (Homo sapiens (Human), UniProt P29275); assay: Adenosine receptor activity assay (Table 1), A2B activity; assay type: biochemical; details: read-out: Ave A2B cAMP IC50
Sequence (P29275 whole entry): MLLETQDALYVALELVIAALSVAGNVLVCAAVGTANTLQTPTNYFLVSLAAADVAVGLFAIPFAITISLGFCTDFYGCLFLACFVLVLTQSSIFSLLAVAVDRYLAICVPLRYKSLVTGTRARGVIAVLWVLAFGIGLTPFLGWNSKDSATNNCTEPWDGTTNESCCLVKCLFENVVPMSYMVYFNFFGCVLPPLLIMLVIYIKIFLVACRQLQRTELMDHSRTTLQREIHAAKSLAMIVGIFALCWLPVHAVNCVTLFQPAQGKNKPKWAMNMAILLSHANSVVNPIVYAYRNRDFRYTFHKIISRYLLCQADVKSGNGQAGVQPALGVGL
pIC50: −log10 of the molar value.
Exercise: for every item that follows, state its recorded pIC50.

INSERT INTO results (compound, result) VALUES
  ('CNc1cc2nc(N[C@@H](C)c3cccnc3)nc(C(=O)N3CC[C@@H](F)C3)c2s1', '> 8.00'),
  ('C[C@H](Nc1nc(C(=O)N2CCC(C(=O)OC(C)(C)C)C2)c2sccc2n1)c1ccccn1 (some centres unmarked)', '6.30 to 7.00'),
  ('C[C@H](Nc1nc(C(=O)NC[C@H]2CCCN2C(=O)OC(C)(C)C)c2sccc2n1)c1ccccn1', '< 6.30'),
  ('COc1ccc(CNC(=O)c2nc(N[C@@H](C)c3ccccn3)nc3cc(C)sc23)cc1', '7.30 to 8.00');

Please state pIC50 for every compound in the list that follows.
1. Cc1csc2c(C(=O)N3CC[C@H](O)C3)nc(N[C@@H](C)c3cncc(F)c3)nc12
2. Cc1cc2nc(N[C@@H](C)c3cncc(F)c3)nc(C(=O)N3CC(C(=O)NOC(C)(C)C)C3)c2s1
3. COC1(C)CN(C(=O)c2nc(N[C@@H](C)c3ccccn3)nc3cc(C)sc23)C1
4. C[C@H](Nc1nc(C(=O)N2CCC[C@@H]2C)c2sccc2n1)c1cncc(F)c1

1: > 8.00; 2: 7.30 to 8.00; 3: 7.30 to 8.00; 4: 7.30 to 8.00
